# experimental_system: human RORγ-LBD (Homo sapiens)
# Construct: made in house; host or cells: E. coli (BL-21)
# Sequence (P51449 262-518): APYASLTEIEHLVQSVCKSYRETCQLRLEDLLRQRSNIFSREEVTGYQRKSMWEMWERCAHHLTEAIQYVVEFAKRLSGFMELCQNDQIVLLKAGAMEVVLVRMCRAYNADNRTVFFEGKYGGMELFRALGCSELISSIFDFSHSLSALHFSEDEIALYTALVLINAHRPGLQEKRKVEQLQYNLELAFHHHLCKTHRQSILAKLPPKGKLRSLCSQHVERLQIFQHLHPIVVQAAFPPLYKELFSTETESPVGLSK
# procedure_details: ROR gamma coactivator peptide recruitment Alphascreen assay (RORγ-LBD binding to GRIP1 coactivator peptide)
# Format: biochemical
# measurement_parameters: 5 nM human RORγ-LBD, 30 nM 7-β-hydroxycholesterol, 50 nM biotinylated GRIP1 coactivator peptide, overnight incubation at room temperature; read-out: result (pIC50, RORγ coactivator peptide recruitment Alphascreen assay) (converted)
Classify by IC50. Ranges: lower level (below 4 nM), middle level (4 nM to below 10 nM), upper level (10 nM or more)

INSERT INTO assay_data (molecule, class_name) VALUES
  ('CCOC(C)(C)CN(CC(=O)c1c(Cl)cncc1Cl)C(=O)c1cnn([C@H]2CC[C@](C)(C(=O)O)CC2)c1C(F)(F)F', 'upper level'),
  ('O=C(O)C1CCC(n2ncc(C(=O)N(CCc3c(Cl)cncc3Cl)CC3(F)CCCC3)c2C(F)(F)F)CC1 (stereo in doubt)', 'upper level'),
  ('CC1(C)CC(CN(CC(=O)c2c(Cl)cccc2Cl)C(=O)c2cnn([C@H]3C[C@H](CC(=O)O)C3)c2C(F)(F)F)C1', 'lower level'),
  ('Cc1cc(Cl)c(C(=O)CN(CC2(C)COC2)C(=O)c2cnn([C@H]3CC[C@](C)(C(=O)O)CC3)c2C(F)(F)F)c(Cl)c1', 'upper level'),
  ('C[C@]1(C(=O)O)CC[C@H](n2ncc(C(=O)N(CCc3c(Cl)cncc3Cl)CC3(F)CCCC3)c2C(F)(F)F)CC1', 'middle level'),
  ('CC(C)(C)CN(CC(=O)c1c(Cl)cncc1Cl)C(=O)c1cnn([C@H]2CC[C@]3(CC2)C[C@@H]3C(=O)O)c1C(F)(F)F', 'upper level'),
  ('C[C@H]1C[C@@](C)(C(=O)O)CCC1n1ncc(C(=O)N(CC(=O)c2c(Cl)cncc2Cl)CC(C)(C)C)c1C(F)(F)F (single isomer, unassigned)', 'middle level'),
  ('C[C@@H]1C[C@@H](n2ncc(C(=O)N(CC(=O)c3c(Cl)cncc3Cl)CC(C)(C)C)c2C(F)(F)F)CC[C@@H]1C(=O)O', 'middle level'),
  ('CC1(C)C[C@@H](CN(CC(=O)c2c(Cl)cncc2Cl)C(=O)c2cnn([C@H]3CC[C@](C)(C(=O)O)CC3)c2C(F)(F)F)O1', 'upper level'),
  ('Cc1cc(Cl)c(C(=O)CN(CC2CCC2)C(=O)c2cnn([C@H]3CC[C@](C)(C(=O)O)CC3)c2C(F)(F)F)c(Cl)c1', 'lower level'),
  ('CC1(CN(CCc2c(Cl)cncc2Cl)C(=O)c2cnn([C@H]3CC[C@H](C(=O)O)CC3)c2C(F)(F)F)CCCCC1', 'lower level'),
  ('C[C@@H]1C[C@@H](n2ncc(C(=O)N(CC(=O)c3c(Cl)cncc3Cl)[C@H]3CCC34CCC4)c2C(F)(F)F)CC[C@@H]1C(=O)O', 'middle level');

###

Let's look at some compounds and their measured IC50.
# experimental_system: ligand binding domain of human ROR gamma (Homo sapiens, UniProt P51449)
# Construct: NM_001001523; expressed in transfected cells; host or cells: HEK293T
# procedure_details: ROR gamma reporter gene assay (GAL4-RORγ LBD luciferase, Dual-Glo)
# Format: cell-based
# measurement_parameters: HEK293T cells transfected with pM-ROR gamma, 8 concentrations 3.5 nM to 10.5 μM, 24 h incubation; read-out: result (pIC50, inhibition of RORγ transcriptional activity) (converted)
endpoint_name: IC50 (pM)

INSERT INTO results (molecule_smiles, experimental_value) VALUES
  ('CC1(C)[C@@H]2C[C@H](N(CC(=O)c3c(Cl)cccc3OC(F)F)C(=O)c3cnn([C@H]4CC[C@](C)(C(=O)O)CC4)c3C(F)(F)F)C[C@@H]21', 28800),
  ('Cc1cncc(Cl)c1C(=O)CN(Cc1cc(F)cc(F)c1)C(=O)c1cnn([C@H]2CC[C@H](C(=O)O)CC2)c1C(F)(F)F', 40700),
  ('O=C(CN(Cc1cc(F)cc(F)c1)C(=O)c1cnn([C@H]2CC[C@H](C(=O)O)CC2)c1C(F)(F)F)c1cc(Cl)ccc1Cl', '2.82e+06'),
  ('CC(C)(C)[C@H]1C[C@H](N(CC(=O)c2c(Cl)cncc2Cl)C(=O)c2cnn([C@H]3CC[C@H](C(=O)O)CC3)c2C(F)(F)F)C1', 66100),
  ('O=C(CN(Cc1cc(F)cc(F)c1)C(=O)c1cnn([C@H]2CC[C@H](C(=O)O)CC2)c1C(F)(F)F)c1cc(Cl)cc(Cl)c1', '5.89e+06');
